# TEST_NAME: Elimination half life in Sprague-Dawley rat at 10 mg/kg, po measured up to 24 hrs by LC/MS/MS analysis
# Type: ADME, organism-based
# DETAILS: in vivo, read-out: beta t1/2 (converted)
MEASURED_PROPERTY: half-life (h)
Your answer should be a plain number; it is taken to be in h.

Answer with the recorded half-life of `CC(F)(F)c1cc(Cl)ccc1-c1sc2c(ccc3[nH]ncc32)c1Oc1ccc(OC2CN(CCCF)C2)cc1` only.
4.6

---

# TEST_NAME: Cmax in ICR mouse at 2 mg/kg, iv measured up to 24 hrs by LC/MS/MS analysis
# Type: ADME, organism-based
# Design: dose 2 mg/kg, time < 24 hrs, route iv
# DETAILS: in vivo
MEASURED_PROPERTY: Cmax (ng/mL)
# output: bare number, implied unit ng/mL

Give recorded Cmax. `CC(F)(F)c1cc(Cl)ccc1-c1sc2c(ccc3[nH]ncc32)c1Oc1ccc(OC2CN(CCCF)C2)cc1`
764

---

# TEST_NAME: Drug concentration in rat ovary at 20 mg/kg, po measured after 2 hrs
# Assay type: ADME, organism-based, Female gonad
# DETAILS: female, read-out: Ct
MEASURED_PROPERTY: concentration at 2 h (ng/mL)
Answer in ng/mL, number only, no unit symbol.

For the molecule `CC(F)(F)c1cc(Cl)ccc1-c1sc2c(ccc3[nH]ncc32)c1Oc1ccc(OC2CN(CCCF)C2)cc1` , give its measured concentration at 2 h value.
4420

---

# TEST_NAME: Volume of distribution at steady state in ICR mouse at 2 mg/kg, iv measured up to 24 hrs by LC/MS/MS analysis
# Assay type: ADME, organism-based
# DETAILS: in vivo, read-out: Vdss
MEASURED_PROPERTY: Vd (L/kg)
Note: unit L/kg is implicit; provide only the numeric part.

Give the value of Vd reported for the following: `CC(F)(F)c1cc(Cl)ccc1-c1sc2c(ccc3[nH]ncc32)c1Oc1ccc(OC2CN(CCCF)C2)cc1`
2.7

---

# TEST_NAME: Cmax in Sprague-Dawley rat at 10 mg/kg, po measured up to 24 hrs by LC/MS/MS analysis
# Format: ADME, organism-based
# Set-up: time < 24 hrs, dose 10 mg/kg, route po
# DETAILS: in vivo
MEASURED_PROPERTY: Cmax (ng/mL)
Give the number; ng/mL is assumed, so skip it.

Below: 3 molecules and their reported Cmax.
* CC(F)(F)c1cc(Cl)ccc1-c1sc2c(ccc3[nH]ncc32)c1Oc1ccc(NC2CN(CCCF)C2)cc1 | 228
* CC(F)(F)c1cc(F)c(F)cc1-c1sc2c(ccc3[nH]ncc32)c1Oc1ccc(OC2CN(CCCF)C2)c(F)c1 | 132
* COc1cc(Oc2c(-c3ccc(F)cc3C(C)(C)F)sc3c2ccc2[nH]ncc23)ccc1OC1CN(CCCF)C1 | 47

Next item in the queue.
Tell me Cmax reported for `CC(F)(F)c1cc(Cl)ccc1-c1sc2c(ccc3[nH]ncc32)c1Oc1ccc(OC2CN(CCCF)C2)cc1`
340

---

Entries annotated with measured AUC(0-t) at 24 h
# TEST_NAME: AUC (0 to t) in Sprague-Dawley rat at 10 mg/kg, po measured up to 24 hrs by LC/MS/MS analysis
# Format: ADME, organism-based
# Set-up: time < 24 hrs, dose 10 mg/kg, route po
# DETAILS: in vivo
Express it in ng·h/mL; write the number only.

Observe how each entry below is paired with its result.
* COc1cc(Oc2c(-c3ccc(F)cc3C(C)(C)F)sc3c2ccc2[nH]ncc23)ccc1OC1CN(CCCF)C1 | 264
* CC(F)(F)c1cc(Cl)ccc1-c1sc2c(ccc3[nH]ncc32)c1Oc1ccc(OC2CN(CCCF)C2)cc1 | 3180
* CC(F)(F)c1cc(Cl)ccc1-c1sc2c(ccc3[nH]ncc32)c1Oc1ccc(NC2CN(CCCF)C2)cc1 | 3090

Input `CC(F)(F)c1cc(F)c(F)cc1-c1sc2c(ccc3[nH]ncc32)c1Oc1ccc(OC2CN(CCCF)C2)c(F)c1` , output reported AUC(0-t) at 24 h.
1280

---

# TEST_NAME: Cmax in Sprague-Dawley rat at 5 mg/kg, po measured up to 24 hrs by LC/MS/MS analysis
# Assay type: ADME, organism-based
# Parameters: time < 24 hrs, dose 5 mg/kg, route po
# DETAILS: in vivo
MEASURED_PROPERTY: Cmax (ng/mL)
Unit ng/mL implied. Number only.

Please look at this compound and report its Cmax: `CC(F)(F)c1cc(-c2sc3cc(O)ccc3c2Oc2ccc(/C=C/C(=O)O)cc2)ccc1F`
283

---

# TEST_NAME: Ratio of drug concentration in rat breast to plasma at 20 mg/kg, po measured after 2 hrs
MEASURED_PROPERTY: Kp at 2 h
Write the number on its own, no unit after it.

Return reported Kp at 2 h. Input molecule: `CC(F)(F)c1cc(Cl)ccc1-c1sc2c(ccc3[nH]ncc32)c1Oc1ccc(OC2CN(CCCF)C2)cc1`
4

---

# TEST_NAME: MRT in ICR mouse at 2 mg/kg, iv measured up to 24 hrs by LC/MS/MS analysis
# Format: ADME, organism-based
# DETAILS: in vivo
MEASURED_PROPERTY: MRT (h)
Provide the reading as a plain figure in h.

Specify measured MRT for `CC(F)(F)c1cc(Cl)ccc1-c1sc2c(ccc3[nH]ncc32)c1Oc1ccc(OC2CN(CCCF)C2)cc1` .
6.4

---

# TEST_NAME: Drug concentration in rat blood at 20 mg/kg, po measured after 2 hrs
# Format: ADME, organism-based
# DETAILS: whole blood, read-out: Ct
MEASURED_PROPERTY: concentration at 2 h (µg/mL)
Hi! Could you send only the number? It should be in µg/mL, unit omitted.

Report concentration at 2 h for `CC(F)(F)c1cc(Cl)ccc1-c1sc2c(ccc3[nH]ncc32)c1Oc1ccc(OC2CN(CCCF)C2)cc1`
0.48

---

# TEST_NAME: Drug concentration in rat uterus at 20 mg/kg, po measured after 2 hrs
# Type: ADME, organism-based
# DETAILS: female, read-out: Ct
MEASURED_PROPERTY: concentration at 2 h

Retrieve concentration at 2 h measured for `CC(F)(F)c1cc(Cl)ccc1-c1sc2c(ccc3[nH]ncc32)c1Oc1ccc(OC2CN(CCCF)C2)cc1` and print it.
2170 ng/mL

---

# MEASURED_TARGET: Estrogen receptor (Homo sapiens)
# Sequence (P03372 whole entry): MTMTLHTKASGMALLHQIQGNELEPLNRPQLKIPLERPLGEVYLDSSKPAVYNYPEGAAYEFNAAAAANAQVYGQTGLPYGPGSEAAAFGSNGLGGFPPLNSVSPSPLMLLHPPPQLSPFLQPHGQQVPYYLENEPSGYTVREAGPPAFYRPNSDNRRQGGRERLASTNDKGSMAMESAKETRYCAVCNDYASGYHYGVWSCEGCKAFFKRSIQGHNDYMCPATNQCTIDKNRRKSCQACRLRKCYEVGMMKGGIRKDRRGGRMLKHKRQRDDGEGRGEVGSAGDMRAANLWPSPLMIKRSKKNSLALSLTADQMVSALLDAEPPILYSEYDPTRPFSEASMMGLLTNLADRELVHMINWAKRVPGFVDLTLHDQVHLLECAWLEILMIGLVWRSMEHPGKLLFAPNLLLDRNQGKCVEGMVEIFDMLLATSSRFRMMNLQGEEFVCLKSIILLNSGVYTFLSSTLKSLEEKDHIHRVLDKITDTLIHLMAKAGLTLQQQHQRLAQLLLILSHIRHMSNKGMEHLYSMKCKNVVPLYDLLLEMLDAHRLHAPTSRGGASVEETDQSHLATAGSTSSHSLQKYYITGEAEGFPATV
# TEST_NAME: Induction of ERalpha degradation in human MCF7 cells incubated for 24 hrs by Western blot analysis
MEASURED_PROPERTY: pEC50
Just so you know, pEC50 here is -log10 of the concentration in molar units; reply with that number alone.

Answered cases to consult:
* CC(F)(F)c1cc(Cl)ccc1-c1sc2c(ccc3[nH]ncc32)c1Oc1ccc(NC2CN(CCCF)C2)cc1 | 8.92
* CC(F)(F)c1cc(Cl)ccc1-c1sc2c(ccc3[nH]ncc32)c1Oc1ccc(O[C@@H]2CCN(CCCF)C2)cc1 | 9.15
* COc1cc(Oc2c(-c3cc(F)c(F)cc3C(C)(F)F)sc3c2ccc2[nH]ncc23)ccc1OC1CN(CCCF)C1 | 8.52

Let's switch to this molecule now.
Give the reported value of pEC50 for this record: `CC(F)(F)c1cc(F)ccc1-c1sc2c(ccc3[nH]ncc32)c1Oc1ccc(OCCN2CC(CC#N)C2)cc1`
9.40

---

# TEST_NAME: Elimination half life in ICR mouse at 5 mg/kg, po measured up to 24 hrs by LC/MS/MS analysis
# Type: ADME, organism-based
# DETAILS: in vivo, read-out: beta t1/2 (converted)
MEASURED_PROPERTY: half-life
Record the result as number plus unit.

State, in one line, measured half-life of `CC(F)(F)c1cc(Cl)ccc1-c1sc2c(ccc3[nH]ncc32)c1Oc1ccc(OC2CN(CCCF)C2)cc1`
5.7 h
